- target.system: hERG (KCNH2) (Homo sapiens, UniProt Q12809)
- Sequence (Q12809 whole entry): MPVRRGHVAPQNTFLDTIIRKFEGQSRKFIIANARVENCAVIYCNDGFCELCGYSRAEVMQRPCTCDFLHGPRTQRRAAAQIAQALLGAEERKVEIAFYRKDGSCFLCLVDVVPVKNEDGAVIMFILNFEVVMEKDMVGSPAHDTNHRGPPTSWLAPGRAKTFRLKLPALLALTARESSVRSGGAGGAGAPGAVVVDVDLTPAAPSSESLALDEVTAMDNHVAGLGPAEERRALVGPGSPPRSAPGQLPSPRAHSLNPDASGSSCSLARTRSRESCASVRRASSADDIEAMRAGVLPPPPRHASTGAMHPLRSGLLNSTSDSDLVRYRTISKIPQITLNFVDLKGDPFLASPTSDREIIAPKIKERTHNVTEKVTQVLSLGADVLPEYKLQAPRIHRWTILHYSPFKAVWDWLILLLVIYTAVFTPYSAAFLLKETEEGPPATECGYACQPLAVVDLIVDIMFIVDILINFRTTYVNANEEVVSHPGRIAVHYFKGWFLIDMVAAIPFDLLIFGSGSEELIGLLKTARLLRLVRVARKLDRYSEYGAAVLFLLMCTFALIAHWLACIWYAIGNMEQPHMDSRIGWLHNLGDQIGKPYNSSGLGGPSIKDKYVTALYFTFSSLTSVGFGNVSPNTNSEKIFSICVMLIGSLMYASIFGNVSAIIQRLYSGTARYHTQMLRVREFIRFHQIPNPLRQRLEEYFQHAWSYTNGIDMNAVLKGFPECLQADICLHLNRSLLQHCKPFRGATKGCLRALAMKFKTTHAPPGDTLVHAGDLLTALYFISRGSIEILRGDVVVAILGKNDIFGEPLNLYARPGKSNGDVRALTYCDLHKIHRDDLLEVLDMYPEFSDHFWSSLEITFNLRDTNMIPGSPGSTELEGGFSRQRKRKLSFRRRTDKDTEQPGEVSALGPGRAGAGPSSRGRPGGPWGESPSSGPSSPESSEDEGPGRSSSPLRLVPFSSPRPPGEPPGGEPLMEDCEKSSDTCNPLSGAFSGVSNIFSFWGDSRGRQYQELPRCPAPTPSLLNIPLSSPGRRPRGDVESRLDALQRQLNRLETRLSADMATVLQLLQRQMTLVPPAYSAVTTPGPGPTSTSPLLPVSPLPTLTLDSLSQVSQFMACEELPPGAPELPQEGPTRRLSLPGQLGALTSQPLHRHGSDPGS
- test.protocol: Inhibition of human ERG at 10 uM
measure.name: inhibition at 10 µM (%)
Provide the reading as a plain figure in %.

Suppose we examine the compound `CCN(CC)Cc1ccc2cc(CN3CCN(c4ccc(C(=O)NO)cc4)C3=O)ccc2c1` ; what inhibition at 10 µM value has been reported? 27
